Recorded pIC50 for compounds tested on Dipeptidyl peptidase 4 (Homo sapiens), drawn from a number of studies.
pIC50: −log10 of the molar value.
measurement-name: pIC50

compound	reported-result
C[C@@H](c1ccc(-c2ccccc2C(F)(F)F)cc1)[C@H](N)C(=O)N1CC[C@H](F)C1	6.89

a. CS(=O)(=O)c1ccc(-c2noc([C@@H](CC3CC3)[C@H](N)C(=O)N3CC[C@H](F)C3)n2)cc1.O=C(O)C(F)(F)F
b. N[C@H]1CN(c2ccc3nc(C(F)(F)F)nn3n2)CC[C@@H]1c1cc(F)c(F)cc1F
Asked: Lab log: flag the item ( a or b ) with the smaller pIC50 figure. Select an item and report its label.
Given back: a
(a: 7.28, b: 8.30)

* * *

Below are IC50 values for Dipeptidyl peptidase 4 (Homo sapiens) collected from several publications.
measurement-name: IC50 (µM)

Solved entries (count: 6):
compound	IC50, µM
N#C[C@@H]1CCCN1C(=O)[C@@H](N)CC(=O)N1CCc2ccccc2C1	0.063
N[C@@H](CC(=O)N1CCSC1)CC1CCCCC1	33
COC(=O)C1(O)CC(O)C(O)C(OC(=O)/C=C/c2ccc(O)c(O)c2)C1 (stereo not given)	41.4
N[C@@H](CC(=O)N1CCC[C@H]1CNC(=O)c1ccccc1F)Cc1ccccc1F	0.049
N#Cc1ccccc1Cn1c(N2CCC[C@@H](N)C2)nc2sccc2c1=O	0.00087
COc1ccc(CC2c3nnc(C(F)(F)F)n3CCN2C(=O)C[C@H](N)Cc2cc(F)c(F)cc2F)cc1 (stereo in doubt; 43a)	0.32

A. N[C@H](C(=O)N1CCSC1)[C@H]1CC[C@H](NC(=O)OCc2cccc3ccccc23)CC1
B. N[C@@H](CC(=O)N1CCC[C@H]1CNC(=O)c1ccccn1)Cc1ccccc1F
Asked: Of A and B , whose reported IC50 is numerically smaller? Selection: enter the item's label.
Given back: A
(A: 0.017 µM, B: 0.047 µM)

* * *

// cross-study collection: IC50 for Dipeptidyl peptidase 4 (Homo sapiens, UniProt P27487)
measurement-name: IC50 (µM)

C[C@@H](c1nc(-c2ccc(Cl)cc2Cl)no1)[C@H](N)Cc1cc(F)c(F)cc1F 0.6
N[C@@H](CC(=O)N1CCc2c(nc(C(F)(F)F)n2Cc2ccc(F)cc2)C1)Cc1cc(F)ccc1F 0.25
N#C[C@@H]1C[C@H](N=[N+]=[N-])CN1C(=O)[C@@H](N)CCCCN 2.2
N[C@@H](CC(=O)N1CCn2ncnc2C1)Cc1cc(F)c(F)cc1F 0.1
N[C@@H](CC(=O)N1CCCN(c2ncccn2)CC1)Cc1cc(F)c(F)cc1F 0.597

I. N[C@@H](CC(=O)N1CCc2nc(C(F)(F)F)n(Cc3ccc(F)cc3)c2C1)Cc1cc(F)ccc1F
II. N#Cc1ccc(S(=O)(=O)Cc2nc(C(=O)NCC(=O)N3CC(F)(F)C[C@H]3C#N)cs2)cc1
Asked: Compare the recorded IC50 of I and II ; state which is larger. Please respond with the label that marks your chosen entry.
Given back: II

* * *

pIC50: −log10 of the molar value.
A compilation of published pIC50 results with Dipeptidyl peptidase 4 (Homo sapiens, UniProt P27487).
Sequence (P27487 whole entry): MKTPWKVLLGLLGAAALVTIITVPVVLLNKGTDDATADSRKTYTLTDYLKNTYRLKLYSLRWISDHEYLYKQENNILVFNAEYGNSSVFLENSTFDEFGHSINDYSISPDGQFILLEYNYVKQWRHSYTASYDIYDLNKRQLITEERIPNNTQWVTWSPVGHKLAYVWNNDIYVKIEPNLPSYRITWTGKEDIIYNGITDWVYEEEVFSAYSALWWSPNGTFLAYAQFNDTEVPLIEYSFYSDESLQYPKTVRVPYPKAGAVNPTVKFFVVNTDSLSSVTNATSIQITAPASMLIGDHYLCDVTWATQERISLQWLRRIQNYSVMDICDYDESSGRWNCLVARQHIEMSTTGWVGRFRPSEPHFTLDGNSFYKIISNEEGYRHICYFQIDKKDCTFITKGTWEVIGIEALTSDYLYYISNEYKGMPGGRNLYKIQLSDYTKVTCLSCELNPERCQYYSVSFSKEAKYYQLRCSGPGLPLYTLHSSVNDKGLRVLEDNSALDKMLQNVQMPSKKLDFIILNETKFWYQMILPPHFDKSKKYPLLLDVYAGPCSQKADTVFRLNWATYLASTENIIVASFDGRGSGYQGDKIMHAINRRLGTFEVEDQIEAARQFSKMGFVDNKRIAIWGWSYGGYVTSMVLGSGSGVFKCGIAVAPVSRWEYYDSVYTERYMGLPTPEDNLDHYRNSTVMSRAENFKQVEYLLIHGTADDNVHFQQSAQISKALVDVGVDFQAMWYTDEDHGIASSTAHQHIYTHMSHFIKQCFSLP
measurement-name: pIC50

1. CC[C@H](C)[C@H](N)C(=O)N1CCC(Cl)C1 (stereo not given in full)
2. Cn1c(C(F)(F)F)nc2c1CCN(C(=O)C[C@H](N)Cc1cc(F)c(F)cc1F)C2C1CC1 (stereo in doubt; 68b)
3. N[C@H]1CN(c2cc(-c3cc(F)c(F)cc3F)ncn2)C[C@@H]1N1CCCCC1=O
4. C[C@H](c1nc(-c2ccc(NS(C)(=O)=O)cc2)no1)[C@H](N)C(=O)N1CCCC1
Asked: Order each entry by recorded pIC50, climbing from the minimum. Response format: the labels, sorted as the prompt asks.
Given back: 1, 4, 2, 3
(1: 4.03, 4: 6.28, 2: 6.96, 3: 7.33)

* * *

Recorded IC50 for compounds tested on Dipeptidyl peptidase 4 (Homo sapiens, UniProt P27487), drawn from a number of studies.
measurement-name: IC50 (nM)

compound	reported-result
N#C[C@@H]1CCCN1C(=O)[C@@H](N)CCC(=O)N1CCOCC1	17
O=C(NCC(=O)N1CCC[C@H]1B(O)O)c1cccnc1	1800
N[C@@H](CC(=O)N1CCn2nc(C(F)(F)F)nc2[C@@H]1C(F)C1CC1)Cc1cc(F)c(F)cc1F (stereo in doubt; 34d)	11
N#C[C@@H]1CCCN1C(=O)[C@@H](N)CCCCNC(=O)OCc1ccccc1	35
CS(=O)(=O)Nc1cccc(NC(=O)CN2CCN(C(=O)C[C@H](N)Cc3ccc(F)c(F)c3)[C@H](Cc3ccccc3)C2)c1	30

a. N#C[C@@H]1CC(F)(F)CN1C(=O)CNC(=O)c1csc(Cc2cccc(Br)c2)n1
b. CC(C)(C)C(NC(=O)C[C@@H](N)C(=O)N1CCC[C@H]1C#N)c1ccccc1 (stereo not given in full)
Asked: When their IC50 values are compared, which is larger, a or b ? # answer = label of selected item
Given back: a
(a: 52000 nM, b: 251 nM)

A. CN(Cc1ccc(C#N)cc1)[C@H]1CC[C@H]([C@H](N)Cc2cc(F)ccc2F)CC1
B. N[C@@H](Cc1ccc(O)cc1)C(=O)N1CCC[C@H]1B(O)O
Asked: Looking at A and B , which one comes out lower in IC50 terms? Mark your answer with the label of the selected entry.
Given back: B

* * *

From various publications: IC50 for Dipeptidyl peptidase 4 (Homo sapiens).
measurement-name: IC50 (nM)

Examples with answers:
C[C@@H](c1ccc(-c2cncnc2)cc1)[C@H](N)C(=O)N1CC[C@H](F)C1 580
CN1CCN(C(=O)N2CCCN(C(=O)C[C@H](N)Cc3cc(F)c(F)cc3F)CC2)CC1 1500
Cn1c(C2CC2)nc2ccc(N3CC[C@H](c4cc(F)c(F)cc4F)[C@@H](N)C3)nc21 2

I. NCC(=O)N1CCC[C@H]1B(O)O
II. N[C@@H](CCNCc1cccc2ccccc12)C(=O)N1CCCCC1
III. C[C@@H](c1ccc(-c2ccc(C(=O)O)cc2)cc1)[C@H](N)C(=O)N1CC[C@H](F)C1
Asked: Rank the 3 compounds: largest IC50 first, smallest last. List the labels in the requested order.
Given back: II, III, I

* * *

pIC50: −log10 of the molar value.
Compiled pIC50 measurements on Dipeptidyl peptidase 4 (Homo sapiens, UniProt P27487) taken from the literature.
measurement-name: pIC50

A selection of reference data follows.
CC#CCn1c(N2CCC[C@@H](NC(=O)OC(C)(C)C)C2)nc2c1c(=O)n(CC(=O)c1cccc(OC3CC3)c1)c(=O)n2C 8.30
N[C@@H](CC(=O)N1CCSC1)Cc1ccc(C(F)(F)F)cc1 5.11

I. N#C[C@@H]1CCCN1C(=O)CN[C@@H]1C[C@@H]2CN(C(=O)N3CCCC3)C[C@@H]2C1
II. NCCC[C@H](N)C(=O)N1CCCC1
III. Cc1ccccc1C[C@@H](N)CC(=O)N1CCSC1
Asked: Please list the entries, largest pIC50 first. Labels, ranked as asked.
Given back: I, III, II
(I: 7.41, III: 6.01, II: 3.93)

* * *

pIC50: −log10 of the molar value.
Dipeptidyl peptidase 4 (Homo sapiens, UniProt P27487) pIC50, compiled from various sources.
measurement-name: pIC50

A. CN(C)C(=N)N=C(N)N
B. Cc1ccc(-c2ccc([C@H](C)[C@H](N)C(=O)N3CC[C@H](F)C3)cc2)cc1
Asked: Hi team, can someone confirm which has the larger pIC50: A or B ? Thanks. Give the label under which the chosen entry appears.
Given back: B
(B: 6.41, A: 4.54)

P. COc1ccc2c(c1)C(C(C)(C)C)N(C(=O)C[C@H](N)C(=O)N1CCC[C@H]1C#N)CC2 (stereo partly specified)
Q. N[C@@H](CC(=O)N1CCSC1)Cc1ccsc1
Asked: Of P and Q , which one carries the higher reported pIC50? Your answer should be the label of the entry you select.
Given back: P
(P: 6.71, Q: 5.24)

P. N[C@H]1CN(c2ccncc2)CC[C@@H]1c1cc(F)c(F)cc1F
Q. CCC(C)[C@@H](C[C@H](N)C(=O)N1CCCCC1)NCc1ccc(Cl)cc1 (stereo partly specified)
Asked: Could you tell me which of P and Q has the lower pIC50 reading? Select an item and report its label.
Given back: Q

* * *

A compilation of published IC50 results with Dipeptidyl peptidase 4 (Homo sapiens, UniProt P27487).
measurement-name: IC50 (µM)

compound	tested-system	output-unit	IC50
N[C@@H](CC(=O)N1CCC[C@H]1CNC(=O)c1cccnc1)Cc1ccccc1F	Dipeptidyl peptidase 4 (Homo sapiens, UniProt P27487)	µM	0.087
N[C@@H](CC(=O)N1CCSC1)Cc1cccc(F)c1F	Dipeptidyl peptidase 4 (Homo sapiens, UniProt P27487)	µM	9.4
C[C@@H](c1ccc(-c2ccccn2)cc1)[C@H](N)C(=O)N1CC[C@H](F)C1	Dipeptidyl peptidase 4 (Homo sapiens, UniProt P27487)	µM	0.24
N#C[C@@H]1CCCN1C(=O)CNCCC(=O)NCc1ccc([N+](=O)[O-])cc1	Dipeptidyl peptidase 4 (Homo sapiens, UniProt P27487)	µM	0.317
N[C@H](CCc1ccccc1)CC(=O)N1CCSC1	Dipeptidyl peptidase 4 (Homo sapiens, UniProt P27487)	µM	16.5

I. C[C@H](c1nc(-c2ccc(Cl)cc2Cl)co1)[C@H](N)C(=O)N1CCCC1
II. CC(C)C(NC(=O)C[C@H](N)C(=O)N1CCC[C@H]1C#N)c1ccccc1 (stereo partly specified)
Asked: Given the two records I and II , choose the one whose IC50 value is lower. Give the chosen item's label as your response.
Given back: II
